# run-description: Fluorescence emission spectrum and Stokes shift
# Type: physicochemical
# particulars: excitation at 345 nm; 20 μM; solvent per compound: IM1, IM3, IM4, IM5 CH2Cl2; IM2 DMSO; IM6 CH3OH; IM7 hexane; DAPI H2O
# Experimental: The stock solutions were diluted to a concentration of 20 µM, and readings used the excitation wavelength of 345 nm for all compounds. […]
quantity-measured: λemis (emission wavelength) (nm)

CC1(C)CCc2c(c3ccccc3c3nc(-c4ccccc4)[nH]c23)O1 :: 402
N=C(N)c1ccc(-c2cc3ccc(C(=N)N)cc3[nH]2)cc1 [DAPI, 4′,6-diamidino-2-phenylindole, reference compound] :: 452
CN(C)c1ccc(-c2nc3c([nH]2)c2c(c4ccccc43)OC(C)(C)CC2)cc1 :: 422
CC1(C)CCc2c(c3ccccc3c3nc(-c4ccccc4[N+](=O)[O-])[nH]c23)O1 :: 385
CC1(C)CCc2c(c3ccccc3c3nc(-c4ccc(O)cc4)[nH]c23)O1 :: 393
CC1(C)CCc2c(c3ccccc3c3nc(-c4cccc5ccccc45)[nH]c23)O1 :: 457
CC1(C)CCc2c(c3ccccc3c3nc(-c4ccc([N+](=O)[O-])cc4)[nH]c23)O1 :: 391
CC1(C)CCc2c(c3ccccc3c3nc[nH]c23)O1 :: 366
